- procedureDetails: Clearance in BALB/C mouse at 10 mg/kg, iv by LC/TSQ quantum access mass spectrometry
- Type: ADME, organism-based
- conditionSummary: in vivo
measuredParameter: clearance (mL/min/kg)
Answer format: numeric, mL/min/kg implied, no suffix.

Annotate the compound O=c1cc(N2CCN(CC3CCCCC3)CC2)sc2c([N+](=O)[O-])cc(C(F)(F)F)cc12 with its measured clearance.
32.3

###

- procedureDetails: AUC (0 to 24 hrs) in BALB/C mouse at 10 mg/kg, iv by LC/TSQ quantum access mass spectrometry
- Type: ADME, organism-based
- Set-up: time < 24 hr, dose 10 mg/kg, route intravenous
- conditionSummary: in vivo
measuredParameter: AUC(0-t) at 24 h (ng·h/mL)
Answer format: numeric, ng·h/mL implied, no suffix.

Annotate the compound O=c1cc(N2CCN(CC3CCCCC3)CC2)sc2c([N+](=O)[O-])cc(C(F)(F)F)cc12 with its measured AUC(0-t) at 24 h.
4950
